- Tested on: DYRK2;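 further: KINOMEscan kinase panel screen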
- experimental_conditions: concentration: 1 μM,replicates: in singlicate; n = 1
assay_readout: %Inh (%)
# unit: % | format: bare number

- compound: "CCCC(=O)Nc1n[nH]c2ncccc12"
  measurement_target: "DYRK2"
  assay_readout: "%Inh"
  recorded_result: 2
- compound: "Cl.Cl.NC[C@H](CC1CCCCC1)NC(=O)c1ccc(-c2ccnc3[nH]ccc23)s1"
  measurement_target: "DYRK2"
  assay_readout: "%Inh"
  recorded_result: 80
- compound: "O=C(Nc1n[nH]c2cc(-c3ccco3)ccc12)C1CC1"
  measurement_target: "DYRK2"
  assay_readout: "%Inh"
  recorded_result: 31
- compound: "CS(=O)c1ccc(-c2coc3ccc(-c4n[nH]c(=O)o4)cc23)cc1 (stereo not shown)"
  measurement_target: "DYRK2"
  assay_readout: "%Inh"
  recorded_result: 10
- compound: "O=C(Nc1cccc(C(F)(F)F)c1)c1cccc(Oc2ccc3nccn3n2)c1"
  measurement_target: "DYRK2"
  assay_readout: "%Inh"
  recorded_result: 6
- compound: "Cc1ccc(C(=O)Nc2ccc(Oc3ccc4nc(NC(=O)C5CC5)cn4c3)c(F)c2)c(=O)n1-c1ccccc1"
  measurement_target: "DYRK2"
  assay_readout: "%Inh"
  recorded_result: 0

In the following, a different compound is considered.
The recorded %Inh for entry Cc1cccc(-c2nc(Nc3ccncc3)c3sccc3n2)n1 equals 35
